Known inhibition zone (IZ) of a selection of compounds
Tested on: Pseudomonas aeruginosa
assay-notes: Antibacterial activity against Pseudomonas aeruginosa MTCC 741 assessed as growth inhibition at 3.12 to 50 ug/mL after 24 hr by agar disk diffusion method
Assay type: functional

{"compound": "CC(=O)Nc1ccc(NC(=O)CNc2ccc(-c3nc(N4CC(C)CC(C)C4)nc(N4CC(C)CC(C)C4)n3)cc2)cc1 (stereo unspecified)", "inhibition zone (IZ)": "19 mm"}
{"compound": "CC1CC(C)CN(c2nc(-c3ccc(NCC(=O)Nc4nc5ccc(C#N)cc5s4)cc3)nc(N3CC(C)CC(C)C3)n2)C1 (stereo unspecified)", "inhibition zone (IZ)": "18 mm"}
{"compound": "CC1CC(C)CN(c2nc(-c3ccc(NCC(=O)Nc4ccccc4)cc3)nc(N3CC(C)CC(C)C3)n2)C1 (stereo unspecified)", "inhibition zone (IZ)": "19 mm"}
{"compound": "Cc1ccc2nc(NC(=O)CNc3ccc(-c4nc(N5CC(C)CC(C)C5)nc(N5CC(C)CC(C)C5)n4)cc3)sc2c1 (stereo unspecified)", "inhibition zone (IZ)": "15 mm"}
{"compound": "CC1CC(C)CN(c2nc(-c3ccc(NCC(=O)Nc4nc5ccc(F)cc5s4)cc3)nc(N3CC(C)CC(C)C3)n2)C1 (stereo unspecified)", "inhibition zone (IZ)": "25 mm"}
{"compound": "CC1CC(C)CN(c2nc(-c3ccc(NCC(=O)Nc4nc5ccc(I)cc5s4)cc3)nc(N3CC(C)CC(C)C3)n2)C1 (stereo unspecified)", "inhibition zone (IZ)": "16 mm"}
{"compound": "COc1ccc2nc(NC(=O)CNc3ccc(-c4nc(N5CC(C)CC(C)C5)nc(N5CC(C)CC(C)C5)n4)cc3)sc2c1 (stereo unspecified)", "inhibition zone (IZ)": "20 mm"}
{"compound": "CC1CC(C)CN(c2nc(-c3ccc(NCC(=O)Nc4nc5ccc(Br)cc5s4)cc3)nc(N3CC(C)CC(C)C3)n2)C1 (stereo unspecified)", "inhibition zone (IZ)": "25 mm"}
{"compound": "CC1CC(C)CN(c2nc(-c3ccc(NCC(=O)Nc4ccc([N+](=O)[O-])cc4)cc3)nc(N3CC(C)CC(C)C3)n2)C1 (stereo unspecified)", "inhibition zone (IZ)": "20 mm"}
{"compound": "CC1CC(C)CN(c2nc(-c3ccc(NCC(=O)Nc4ccc(I)cc4)cc3)nc(N3CC(C)CC(C)C3)n2)C1 (stereo unspecified)", "inhibition zone (IZ)": "24 mm"}
{"compound": "CC1CC(C)CN(c2nc(-c3ccc(NCC(=O)Nc4nc5ccc(Cl)cc5s4)cc3)nc(N3CC(C)CC(C)C3)n2)C1 (stereo unspecified)", "inhibition zone (IZ)": "26 mm"}
{"compound": "Cc1ccc(NC(=O)CNc2ccc(-c3nc(N4CC(C)CC(C)C4)nc(N4CC(C)CC(C)C4)n3)cc2)cc1 (stereo unspecified)", "inhibition zone (IZ)": "17 mm"}
{"compound": "CCOc1ccc(NC(=O)CNc2ccc(-c3nc(N4CC(C)CC(C)C4)nc(N4CC(C)CC(C)C4)n3)cc2)cc1 (stereo unspecified)", "inhibition zone (IZ)": "16 mm"}
{"compound": "CC1CC(C)CN(c2nc(-c3ccc(NCC(=O)Nc4ccc(C#N)cc4)cc3)nc(N3CC(C)CC(C)C3)n2)C1 (stereo unspecified)", "inhibition zone (IZ)": "21 mm"}
{"compound": "CC1CC(C)CN(c2nc(-c3ccc(NCC(=O)Nc4nc5ccccc5s4)cc3)nc(N3CC(C)CC(C)C3)n2)C1 (stereo unspecified)", "inhibition zone (IZ)": "16 mm"}
{"compound": "CC(=O)Nc1ccc2nc(NC(=O)CNc3ccc(-c4nc(N5CC(C)CC(C)C5)nc(N5CC(C)CC(C)C5)n4)cc3)sc2c1 (stereo unspecified)", "inhibition zone (IZ)": "19 mm"}
